molecular target: human CD33 S131H (human, UniProt P20138 18-364); test: flow cytometry, HEK293-T, IgG;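 also: CD33 point mutants transiently expressed, antibody binding measured by fluorescence in duplicate, background subtracted and scaled to binding on wild-type CD33 as 100%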
Sequence (P20138 18-364 S131H limits assumed): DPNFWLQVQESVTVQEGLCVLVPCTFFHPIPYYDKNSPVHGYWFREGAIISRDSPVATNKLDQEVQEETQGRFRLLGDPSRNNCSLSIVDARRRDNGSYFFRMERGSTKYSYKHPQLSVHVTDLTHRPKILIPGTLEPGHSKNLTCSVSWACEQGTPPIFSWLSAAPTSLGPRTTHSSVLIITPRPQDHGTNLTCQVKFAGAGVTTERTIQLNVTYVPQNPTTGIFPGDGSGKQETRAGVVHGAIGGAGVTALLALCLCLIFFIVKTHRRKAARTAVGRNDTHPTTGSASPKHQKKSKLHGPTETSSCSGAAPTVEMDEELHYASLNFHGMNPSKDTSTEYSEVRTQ
Listed here: items and their measured Mean % WT Binding.
PROPERTY_LABEL: Mean % WT Binding (% WT binding)

{"BINDER": "Refmab #1 (antibody, human IgG1, V domains shown, tested in IgG format; also called hP67.6) VH: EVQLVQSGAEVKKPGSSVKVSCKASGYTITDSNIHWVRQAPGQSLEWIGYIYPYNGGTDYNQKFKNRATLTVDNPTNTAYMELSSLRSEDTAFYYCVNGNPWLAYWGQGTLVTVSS VL: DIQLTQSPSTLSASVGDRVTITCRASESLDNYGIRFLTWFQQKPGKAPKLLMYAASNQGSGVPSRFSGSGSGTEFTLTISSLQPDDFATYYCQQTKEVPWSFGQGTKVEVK", "QUANTITATIVE_RESULT": 96.4}
{"BINDER": "Refmab #2 (antibody, human IgG1, V domains shown, tested in IgG format) VH: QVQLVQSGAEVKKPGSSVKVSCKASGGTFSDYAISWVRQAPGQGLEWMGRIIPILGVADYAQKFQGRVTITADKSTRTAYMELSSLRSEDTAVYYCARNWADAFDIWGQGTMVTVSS VL: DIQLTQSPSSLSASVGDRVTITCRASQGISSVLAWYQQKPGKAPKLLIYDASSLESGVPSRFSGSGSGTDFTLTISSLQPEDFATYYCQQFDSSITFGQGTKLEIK", "QUANTITATIVE_RESULT": 112}
{"BINDER": "Refmab #3 (antibody, human IgG1, V domains shown, tested in IgG format) VH: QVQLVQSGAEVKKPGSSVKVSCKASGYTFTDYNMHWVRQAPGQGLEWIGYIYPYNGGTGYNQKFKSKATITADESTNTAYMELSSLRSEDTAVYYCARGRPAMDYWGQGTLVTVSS VL: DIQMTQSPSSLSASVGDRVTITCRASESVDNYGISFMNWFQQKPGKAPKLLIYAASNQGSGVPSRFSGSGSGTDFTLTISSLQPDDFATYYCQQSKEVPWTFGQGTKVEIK", "QUANTITATIVE_RESULT": 100}
{"BINDER": "Refmab #4 (antibody, human IgG1, V domains shown, tested in IgG format) VH: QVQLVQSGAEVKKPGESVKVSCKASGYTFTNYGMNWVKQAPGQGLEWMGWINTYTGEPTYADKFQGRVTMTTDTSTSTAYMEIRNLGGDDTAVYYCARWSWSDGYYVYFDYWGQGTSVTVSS VL: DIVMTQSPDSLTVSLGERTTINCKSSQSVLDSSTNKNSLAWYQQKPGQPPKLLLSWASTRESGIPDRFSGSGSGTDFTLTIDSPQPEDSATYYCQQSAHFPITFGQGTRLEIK", "QUANTITATIVE_RESULT": 103}

Source: patent US20260242735A1
